Source listed as patent US4281009A.

The entries below come with measured Analgesic effect values attached.
# System: normal mice and SART stress mice
# protocol: Analgesic effect, tail pressure method (Randall-Selitto's device)
# Assay type: in vivo, mice (ddY-strain male)
# settings: SART stress mice; intraperitoneal 50 mg/kg; 60 minutes
The figure you give is taken to be in %; do not add the unit.

- compound: "O=C1NC(=O)C(c2ccccc2)(c2ccc(O)cc2)N1 (stereo not shown) [Compound 7, 5-(4-Hydroxyphenyl)-5-phenylhydantoin]"
  system_name: "normal mice and SART stress mice"
  Analgesic effect / %: 76.5

For the next question, use this compound.
QUERY: Write down measured Analgesic effect (normal mice and SART stress mice) for this compound. O=C1NC(=O)C(c2ccc(O)cc2)(c2ccc(O)cc2)N1 [Compound 4, 5,5-Bis(4-hydroxyphenyl)hydantoin]
RESULT: 88.2

====

# protocol: Acute toxicity test (LD50, Litchfield-Wilcoxon), rats
# settings: rat, in vivo, ip, female, intraperitoneal
measured_endpoint: LD50 at 72 h

Observe how each entry below is paired with its result.
- compound: "COc1ccc(C2(c3ccc(OC)c(OC)c3)NC(=O)NC2=O)cc1 (centres unmarked)"
  LD50 at 72 h: "> 5000 mg/kg"
- compound: "Cc1cc(C2(c3ccc(O)cc3)NC(=O)NC2=O)ccc1O (centres unmarked)"
  LD50 at 72 h: "> 5000 mg/kg"
- compound: "Cc1ccc(C2(c3ccc(C)cc3)NC(=O)NC2=O)cc1"
  LD50 at 72 h: "> 5000 mg/kg"

QUERY: Output LD50 at 72 h of O=C1NC(=O)C(c2ccc(O)cc2)(c2cccs2)N1 (centres unmarked)
RESULT: > 3000 mg/kg

QUERY: Output LD50 at 72 h of COc1ccc(C2(c3ccc(OC)c(C)c3)NC(=O)NC2=O)cc1 (centres unmarked)
RESULT: > 5000 mg/kg

====

# protocol: Acute toxicity test (LD50, Litchfield-Wilcoxon), mice
# settings: mouse, in vivo, ip, male, intraperitoneal
# Method: Toxicity tests were carried out by intraperitoneal administration of the compound of the present invention to groups each comprising 10 ICR-strain mice and SD-strain rats. LD50 was calculated by the Litchfield-Wilcoxon method based on the number of death 72 hours after the administration.
The entries below come with measured LD50 at 72 h values attached.

Observe how each entry below is paired with its result.
- molecule: "O=C1NC(=O)C(c2ccc(O)cc2)(c2ccc(O)cc2O)N1 (centres unmarked) [Compound 31]"
  measured_endpoint: "LD50 at 72 h"
  observed_result: "1220 mg/kg"
- molecule: "O=C1NC(=O)C(c2ccccc2O)(c2ccccc2O)N1 [Compound 29, 5,5-Bis(2-hydroxyphenyl)hydantoin]"
  measured_endpoint: "LD50 at 72 h"
  observed_result: "1600 to 1800 mg/kg"

QUERY: Output LD50 at 72 h of COc1ccc(C2(c3ccc(O)cc3)NC(=O)NC2=O)cc1 (centres unmarked) [Compound 11]
RESULT: > 3000 mg/kg

QUERY: Output LD50 at 72 h of COc1ccc(C2(c3ccc(OC)c(C)c3)NC(=O)NC2=O)cc1 (centres unmarked) [Compound 3]
RESULT: > 5000 mg/kg

QUERY: Output LD50 at 72 h of Cc1cc(C2(c3ccc(O)cc3)NC(=O)NC2=O)ccc1O (centres unmarked) [Compound 30]
RESULT: > 5000 mg/kg

====

# protocol: Acute toxicity test (LD50, Litchfield-Wilcoxon), mice
# settings: mouse, in vivo, ip, male, intraperitoneal
measured_endpoint: LD50 at 72 h

- molecule: "O=C1NC(=O)C(c2cccc(O)c2)(c2cccc(O)c2)N1 [Compound 8, 5,5-Bis(3-hydroxyphenyl)hydantoin]"
  LD50 at 72 h: "1350 mg/kg"
- molecule: "O=C1NC(=O)C(c2ccc(O)c(CO)c2)(c2ccc(O)c(CO)c2)N1"
  LD50 at 72 h: "> 3000 mg/kg"
- molecule: "O=C1NC(=O)C(c2ccccc2)(c2ccccc2O)N1 (centres unmarked) [Compound 6, 5-(2-Hydroxyphenyl)-5-phenylhydantoin]"
  LD50 at 72 h: "> 5000 mg/kg"
- molecule: "COc1ccc(C2(c3ccc(OC)cc3OC)NC(=O)NC2=O)cc1 (centres unmarked)"
  LD50 at 72 h: "> 5000 mg/kg"

QUERY: Output LD50 at 72 h of O=C1NC(=O)C(c2ccc(O)cc2)(c2ccc(O)cc2)N1 [Compound 4, 5,5-Bis(4-hydroxyphenyl)hydantoin]
RESULT: 1060 mg/kg

QUERY: Output LD50 at 72 h of Cc1ccc(C2(c3ccc(C)cc3)NC(=O)NC2=O)cc1
RESULT: > 5000 mg/kg

QUERY: Output LD50 at 72 h of O=C1NC(=O)C(c2ccc(O)cc2)(c2ccc(O)c(Cl)c2)N1 (centres unmarked)
RESULT: > 5000 mg/kg

QUERY: Output LD50 at 72 h of O=C1NC(=O)C(c2ccc(O)cc2)(c2ccc(O)c(O)c2)N1 (centres unmarked)
RESULT: 1280 mg/kg

====

# protocol: Acute toxicity test (LD50, Litchfield-Wilcoxon), rats
# settings: rat, in vivo, ip, female, intraperitoneal
The entries below come with measured LD50 at 72 h values attached.

Observe how each entry below is paired with its result.
- compound: "CCC1(c2ccccc2O)NC(=O)NC1=O (stereo not shown) [Compound 25, 5-Ethyl-5-(2-hydroxyphenyl)hydantoin]"
  LD50 at 72 h: "1480 mg/kg"
- compound: "COc1ccc(C2(c3ccc(OC)c(Cl)c3)NC(=O)NC2=O)cc1 (stereo not shown)"
  LD50 at 72 h: "1540 mg/kg"
- compound: "COc1ccc(C2(c3ccc(OC)cc3OC)NC(=O)NC2=O)c(OC)c1"
  LD50 at 72 h: "> 5000 mg/kg"

QUERY: Output LD50 at 72 h of COc1cc(C2(c3ccc(OC)c(OC)c3OC)NC(=O)NC2=O)cc(OC)c1OC (stereo not shown)
RESULT: > 5000 mg/kg

QUERY: Output LD50 at 72 h of O=C1NC(=O)C(c2ccccc2)(c2ccccc2O)N1 (stereo not shown) [Compound 6, 5-(2-Hydroxyphenyl)-5-phenylhydantoin]
RESULT: > 5000 mg/kg

QUERY: Output LD50 at 72 h of O=C1NC(=O)C(c2cccc(O)c2)(c2cccc(O)c2)N1 [Compound 8, 5,5-Bis(3-hydroxyphenyl)hydantoin]
RESULT: 1660 mg/kg

QUERY: Output LD50 at 72 h of O=C1NC(=O)C(c2ccccc2)(c2ccc(O)cc2)N1 (stereo not shown) [Compound 7, 5-(4-Hydroxyphenyl)-5-phenylhydantoin]
RESULT: > 5000 mg/kg

====

The entries below come with measured change in vivo at 100 mg/kg values attached.
# Test system: ddY-strain male mice
# protocol: Effect of prolongation of sleeping time (hexobarbital)
# Assay type: in vivo
# settings: Mus musculus, ip, 100 mg/kg intraperitoneal
The figure you give is taken to be in %; do not add the unit.

Observe how each entry below is paired with its result.
- molecule: "O=C1NC(=O)C(c2cc(O)c(O)c(O)c2)(c2cc(O)c(O)c(O)c2)N1 [Compound 36, 5,5-Bis(3,4,5-trihydroxyphenyl)hydantoin]"
  units_label: "%"
  observed_result: 11.3
- molecule: "CCC1(c2ccc(O)cc2)NC(=O)NC1=O (stereo not shown) [Compound 24, 5-Ethyl-5-(4-hydroxyphenyl)hydantoin]"
  units_label: "%"
  observed_result: 54.4
- molecule: "COc1cc(C2(c3ccc(OC)c(OC)c3OC)NC(=O)NC2=O)cc(OC)c1OC (stereo not shown) [Compound 22]"
  units_label: "%"
  observed_result: 13.1

For the next question, use this molecule.
QUERY: Output change in vivo at 100 mg/kg of COc1ccc(C2(c3ccc(OC)c(C)c3)NC(=O)NC2=O)cc1 (stereo not shown) [Compound 3]
RESULT: 76.6

====

# protocol: Acute toxicity test (LD50, Litchfield-Wilcoxon), rats
# settings: rat, in vivo, ip, female, intraperitoneal
The entries below come with measured LD50 at 72 h values attached.
The figure you give is taken to be in mg/kg; do not add the unit.

- compound: "O=C1NC(=O)C(c2ccccc2O)(c2ccccc2O)N1 [Compound 29, 5,5-Bis(2-hydroxyphenyl)hydantoin]"
  units_label: "mg/kg"
  LD50 at 72 h: 1900

QUERY: Output LD50 at 72 h of O=C1NC(=O)C(c2ccccc2)(c2ccc(F)cc2)N1 (stereo not drawn)
RESULT: 1100

====

# Test system: normal mice and SART stress mice
# protocol: Analgesic effect, acetic acid writhing method
# Format: in vivo
# settings: Mus musculus, sc, normal mice; 100 mg/Kg subcutaneously
measured_endpoint: inhibition in vivo at 100 mg/kg (%)
The figure you give is taken to be in %; do not add the unit.

- compound: "COc1ccc(C2(c3ccc(OC)c(Cl)c3)NC(=O)NC2=O)cc1 (stereo not shown)"
  system_name: "normal mice and SART stress mice"
  observed_result: 4.4
- compound: "O=C1NC(=O)C(c2cc(O)c(O)c(O)c2)(c2cc(O)c(O)c(O)c2)N1 [Compound 36, 5,5-Bis(3,4,5-trihydroxyphenyl)hydantoin]"
  system_name: "normal mice and SART stress mice"
  observed_result: 8.2
- compound: "O=C1NC(=O)C(c2ccccc2)(c2ccc(O)cc2)N1 (stereo not shown) [Compound 7, 5-(4-Hydroxyphenyl)-5-phenylhydantoin]"
  system_name: "normal mice and SART stress mice"
  observed_result: 3.8
- compound: "COc1ccc(C2(c3ccc(OC)c(C)c3)NC(=O)NC2=O)cc1 (stereo not shown)"
  system_name: "normal mice and SART stress mice"
  observed_result: 2
- compound: "O=C1NC(=O)C(c2ccccc2)(c2ccccc2)N1 [DPH, 5,5-diphenylhydantoin, reference compound]"
  system_name: "normal mice and SART stress mice"
  observed_result: -16.3

QUERY: Output inhibition in vivo at 100 mg/kg of Cc1cc(C2(c3ccc(O)cc3)NC(=O)NC2=O)ccc1O (stereo not shown)
RESULT: 3.9

QUERY: Output inhibition in vivo at 100 mg/kg of O=C1NC(=O)C(c2ccc(O)cc2)(c2ccc(O)c(O)c2)N1 (stereo not shown)
RESULT: 5

QUERY: Output inhibition in vivo at 100 mg/kg of CCC1(c2ccccc2O)NC(=O)NC1=O (stereo not shown) [Compound 25, 5-Ethyl-5-(2-hydroxyphenyl)hydantoin]
RESULT: 1.9

QUERY: Output inhibition in vivo at 100 mg/kg of O=C1NC(=O)C(c2ccc(O)cc2)(c2cccs2)N1 (stereo not shown)
RESULT: 2.4

QUERY: Output inhibition in vivo at 100 mg/kg of O=C1NC(=O)C(c2ccc(O)cc2)(c2ccc(O)cc2)N1 [Compound 4, 5,5-Bis(4-hydroxyphenyl)hydantoin]
RESULT: 4.8
